# Measurement Target: TC-PTP (Homo sapiens, UniProt P17706)
# Sequence (P17706 1-288 isoform P17706-2): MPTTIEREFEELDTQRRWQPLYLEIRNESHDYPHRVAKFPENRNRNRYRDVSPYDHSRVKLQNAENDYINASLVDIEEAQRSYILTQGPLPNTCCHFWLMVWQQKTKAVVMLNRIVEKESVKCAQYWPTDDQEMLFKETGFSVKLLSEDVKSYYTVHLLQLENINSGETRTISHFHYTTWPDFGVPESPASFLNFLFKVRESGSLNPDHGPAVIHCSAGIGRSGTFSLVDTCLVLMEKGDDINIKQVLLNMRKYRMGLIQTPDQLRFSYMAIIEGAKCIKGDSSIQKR
Measurement Type: IC50 (µM)
Entry rule: numbers only, all in µM.

// query Specify reported IC50 for the compound shown: C=CC(C)(C)c1cc2cc3c(cc2oc1=O)O[C@H](C(C)(C)OC(C)=O)C3 [(+)-Rutamarin]
// result 26.8

Origin of values: paper PMC3288053
